Answer each item with its documented relative viability.
tested on: NCI-H1666; test: relative viability (nuclei count vs DMSO), 5 days (fraction); higher = more cells survive; conditions: first compound 158.11 µM
Numbers only.

Please review the following examples before continuing.
| molecule | relative viability |
| --- | --- |
| O=C(O)CCCCC(CCSCc1ccccc1)SCc1ccccc1 (stereo not drawn) [CPI-613] + CS(=O)(=O)N1CCN(Cc2cc3nc(-c4cccc5[nH]ncc45)nc(N4CCOCC4)c3s2)CC1 [Pictilisib] (partner 1 µM) | 0.15 |
| O=C(O)CCCCC(CCSCc1ccccc1)SCc1ccccc1 (stereo not drawn) [CPI-613] + Cc1nc(Nc2ncc(C(=O)Nc3c(C)cccc3Cl)s2)cc(N2CCN(CCO)CC2)n1 [Dasatinib] (partner 0.075 µM) | 0.386 |

Could you now look at the following molecule, please?
# relative viability of O=C(O)CCCCC(CCSCc1ccccc1)SCc1ccccc1 (stereo not drawn) [CPI-613] + C[C@]1(O)C[C@@H](c2nc(-c3ccc4ccc(-c5ccccc5)nc4c3)c3c(N)nccn32)C1 [Linsitinib] (partner 1 µM) = 0.172

Reference source for all entries: the supplement of paper PMC10307832
